Biological target: Aβ 1-42 fibrils (Homo sapiens)
Construct: pre-fibrillized human Aβ 1-42 (rPeptide); purchased rPeptide
Experiment: Congo red binding assay, Aβ 1-42 fibrils
Format: biochemical
Details: compound:peptide molar ratio 1:1; 2-day incubation
Protocol: In the Congo red binding assay the ability of a test compound to alter β-amyloid binding to Congo red is quantified. In this assay, Aβ 1-42 (as prepared for the Thio T assay) and test compounds were incubated for 2 days and then vacuum filtered through a 0.2 μm filter. The amount of Aβ 1-42 retained in the filter was then quantitated following staining of the filter with Congo red. […]
Just a reminder that ties go to not met: only Congo Red Binding % Inhibition strictly below 20% counts as met.

## Input Answer whether the compound Cn1c(=O)n(Cc2ccc(O)c(O)c2)c(=O)c2c1ncn2Cc1ccc(O)c(O)c1 [PD-151] has Congo Red Binding % Inhibition strictly less than 20%
## Output met

## Input Answer whether the compound Cn1cnc2c1c(=O)n(Cc1ccc(O)c(O)c1)c(=O)n2Cc1ccc(O)c(O)c1 [PD-150] has Congo Red Binding % Inhibition strictly less than 20%
## Output met

## Input Answer whether the compound Cn1c(=O)c2c(ncn2Cc2ccc(O)c(O)c2)n(Cc2ccc(O)c(O)c2)c1=O [PD-152] has Congo Red Binding % Inhibition strictly less than 20%
## Output not met

## Input Answer whether the compound Cn1c(=O)c2c(ncn2C)n(C)c1=O [Caffeine, reference compound] has Congo Red Binding % Inhibition strictly less than 20%
## Output met

---

target: Aβ 1-42 (Homo sapiens, UniProt P05067); experiment: Circular dichroism (CD) spectroscopy, inhibition of β-sheet formation of Aβ; format: biochemical; settings: compound:Aβ molar ratio 5:1; 24 hours
Sequence (P05067 672-713 limits assumed): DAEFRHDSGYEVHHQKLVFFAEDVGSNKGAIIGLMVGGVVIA
Parameter: Circular Dichroism Spectroscopy -% Inhibition
# answer = value followed by unit

- Smiles Code: "Cn1c(=O)c2c(ncn2Cc2ccc(O)c(O)c2)n(Cc2ccc(O)c(O)c2)c1=O"
  Measured On: "Aβ 1-42 (Homo sapiens, UniProt P05067)"
  Reported Value: "35%"
- Smiles Code: "Cn1c(=O)n(Cc2ccc(O)c(O)c2)c(=O)c2c1ncn2Cc1ccc(O)c(O)c1"
  Measured On: "Aβ 1-42 (Homo sapiens, UniProt P05067)"
  Reported Value: "66%"

Kindly note the recorded Circular Dichroism Spectroscopy -% Inhibition for Cn1c(=O)c2c(nc(-c3ccc(O)c(O)c3)n2C)n(C)c1=O , which is 8%

Kindly note the recorded Circular Dichroism Spectroscopy -% Inhibition for Cn1cnc2c1c(=O)n(Cc1ccc(O)c(O)c1)c(=O)n2Cc1ccc(O)c(O)c1 , which is 69%

---

molecular target: α-synuclein fibrils (Homo sapiens, UniProt P37840); construct: purchased rPeptide, Bogart, Calif; assay: Thioflavin T fluorometry, disruption of pre-formed α-synuclein fibrils; type: biochemical; conditions: compound:peptide molar ratio 0.1:1; 2-day incubation
Some compounds, each annotated with its measured Thioflavin T fluorometry-% Inhibition.
Kindly provide the numeric value in % only, without the unit symbol.

Kindly note the recorded Thioflavin T fluorometry-% Inhibition for Cn1c(=O)c2c(ncn2Cc2ccc(O)c(O)c2)n(Cc2ccc(O)c(O)c2)c1=O , which is 4

Kindly note the recorded Thioflavin T fluorometry-% Inhibition for Cn1c(=O)n(Cc2ccc(O)c(O)c2)c(=O)c2c1ncn2Cc1ccc(O)c(O)c1 , which is 15

Kindly note the recorded Thioflavin T fluorometry-% Inhibition for Cn1cnc2c1c(=O)n(Cc1ccc(O)c(O)c1)c(=O)n2Cc1ccc(O)c(O)c1 , which is 0

Kindly note the recorded Thioflavin T fluorometry-% Inhibition for Cn1c(=O)c2c(nc(-c3ccc(O)c(O)c3)n2C)n(C)c1=O , which is 17

---

assay: Plasma and brain pharmacokinetics in mice after intraperitoneal injection; format: in vivo; details: mouse, plasma, ip; CD-1 female mice, i.p. injection at 50 mg/kg, 7-60 min post-dose
Some molecules, each annotated with its measured Cmax.
Kindly provide the numeric value in ng/mL only, without the unit symbol.

- Smiles Code: "Cn1c(=O)n(Cc2ccc(O)c(O)c2)c(=O)c2c1ncn2Cc1ccc(O)c(O)c1"
  Unit Annotation: "ng/mL"
  Cmax: 5340

Turning now to a further molecule:
Kindly note the recorded Cmax for Cn1cnc2c1c(=O)n(Cc1ccc(O)c(O)c1)c(=O)n2Cc1ccc(O)c(O)c1 , which is 3280

---

Some molecules, each annotated with its measured Thioflavin T fluorometry % Inhibition.
target: Aβ 1-42 fibrils (Homo sapiens, UniProt P05067); construct: pre-fibrillized human Aβ 1-42 (rPeptide); purchased rPeptide; assay: Thioflavin T fluorometry, disruption of pre-fibrillized Aβ 1-42; format: biochemical; conditions: compound:peptide molar ratio 5:1; 2-day incubation
Sequence (P05067 672-713 limits assumed): as above

- Molecule: "Cn1cnc2c1c(=O)n(Cc1ccc(O)c(O)c1)c(=O)n2Cc1ccc(O)c(O)c1"
  Thioflavin T fluorometry % Inhibition: "87%"
- Molecule: "Cn1c(=O)c2c(nc(-c3ccc(O)c(O)c3)n2C)n(C)c1=O"
  Thioflavin T fluorometry % Inhibition: "17%"
- Molecule: "Cn1c(=O)c2c(ncn2Cc2ccc(O)c(O)c2)n(Cc2ccc(O)c(O)c2)c1=O"
  Thioflavin T fluorometry % Inhibition: "87%"
- Molecule: "Cn1c(=O)c2c(ncn2C)n(C)c1=O [Caffeine, reference compound]"
  Thioflavin T fluorometry % Inhibition: "0%"

Turning now to a further molecule:
Considering Cn1c(=O)n(Cc2ccc(O)c(O)c2)c(=O)c2c1ncn2Cc1ccc(O)c(O)c1 , its Thioflavin T fluorometry % Inhibition with Aβ 1-42 fibrils (Homo sapiens, UniProt P05067) was recorded as 87%

---

target: Aβ 1-42 (Homo sapiens, UniProt P05067); assay: Circular dichroism (CD) spectroscopy, inhibition of β-sheet formation of Aβ; assay type: biochemical; details: compound:Aβ molar ratio 10:1; 24 hours
Some compounds, each annotated with its measured Circular Dichroism Spectroscopy -% Inhibition.
Kindly provide the numeric value in % only, without the unit symbol.

Below are worked cases with known answers.
- Smiles Code: "Cn1cnc2c1c(=O)n(Cc1ccc(O)c(O)c1)c(=O)n2Cc1ccc(O)c(O)c1"
  Measured On: "Aβ 1-42 (Homo sapiens, UniProt P05067)"
  Reported Value: 62
- Smiles Code: "Cn1c(=O)n(Cc2ccc(O)c(O)c2)c(=O)c2c1ncn2Cc1ccc(O)c(O)c1"
  Measured On: "Aβ 1-42 (Homo sapiens, UniProt P05067)"
  Reported Value: 67
- Smiles Code: "Cn1c(=O)c2c(nc(-c3ccc(O)c(O)c3)n2C)n(C)c1=O"
  Measured On: "Aβ 1-42 (Homo sapiens, UniProt P05067)"
  Reported Value: 24

Turning now to a further compound:
Kindly note the recorded Circular Dichroism Spectroscopy -% Inhibition for Cn1c(=O)c2c(ncn2Cc2ccc(O)c(O)c2)n(Cc2ccc(O)c(O)c2)c1=O , which is 57

---

experiment: Plasma and brain pharmacokinetics in mice after intraperitoneal injection; format: in vivo; details: mouse, plasma, ip; CD-1 female mice, i.p. injection at 50 mg/kg, 7-60 min post-dose
Parameter: AUC (µg·h/mL)
Kindly provide the numeric value in µg·h/mL only, without the unit symbol.

- Smiles Code: "Cn1cnc2c1c(=O)n(Cc1ccc(O)c(O)c1)c(=O)n2Cc1ccc(O)c(O)c1"
  Unit Annotation: "µg·h/mL"
  Reported Value: 2.13

Kindly note the recorded AUC for Cn1c(=O)n(Cc2ccc(O)c(O)c2)c(=O)c2c1ncn2Cc1ccc(O)c(O)c1 , which is 3.54

---

molecular target: wild-type α-synuclein (Homo sapiens, UniProt P37840); assay: Thioflavin T fluorometry, inhibition of formation of α-synuclein β-sheet from fresh α-synuclein; format: biochemical; details: compound:peptide molar ratio 0.1:1
Parameter: ThioT Assay % Inhibition (%)
Kindly provide the numeric value in % only, without the unit symbol.

Below are worked cases with known answers.
- Molecule: "Cn1c(=O)n(Cc2ccc(O)c(O)c2)c(=O)c2c1ncn2Cc1ccc(O)c(O)c1"
  Measured On: "wild-type α-synuclein (Homo sapiens, UniProt P37840)"
  Unit Annotation: "%"
  ThioT Assay % Inhibition: 0
- Molecule: "Cn1cnc2c1c(=O)n(Cc1ccc(O)c(O)c1)c(=O)n2Cc1ccc(O)c(O)c1"
  Measured On: "wild-type α-synuclein (Homo sapiens, UniProt P37840)"
  Unit Annotation: "%"
  ThioT Assay % Inhibition: 0

Kindly note the recorded ThioT Assay % Inhibition for Cn1c(=O)c2c(ncn2Cc2ccc(O)c(O)c2)n(Cc2ccc(O)c(O)c2)c1=O , which is 0

Kindly note the recorded ThioT Assay % Inhibition for Cn1c(=O)c2c(nc(-c3ccc(O)c(O)c3)n2C)n(C)c1=O , which is 23

Kindly note the recorded ThioT Assay % Inhibition for Cn1c(=O)c2c(ncn2C)n(C)c1=O [Caffeine, reference compound] , which is 0

---

molecular target: wild-type α-synuclein (Homo sapiens); assay: Thioflavin T fluorometry, inhibition of formation of α-synuclein β-sheet from fresh α-synuclein; assay type: biochemical; details: compound:peptide molar ratio 1:1
Parameter: ThioT Assay % Inhibition (%)
Kindly provide the numeric value in % only, without the unit symbol.

Below are worked cases with known answers.
- Compound: "Cn1c(=O)c2c(nc(-c3ccc(O)c(O)c3)n2C)n(C)c1=O"
  Reported Value: 0
- Compound: "Cn1c(=O)c2c(ncn2Cc2ccc(O)c(O)c2)n(Cc2ccc(O)c(O)c2)c1=O"
  Reported Value: 0
- Compound: "Cn1cnc2c1c(=O)n(Cc1ccc(O)c(O)c1)c(=O)n2Cc1ccc(O)c(O)c1"
  Reported Value: 22

Kindly note the recorded ThioT Assay % Inhibition for Cn1c(=O)c2c(ncn2C)n(C)c1=O [Caffeine, reference compound] , which is 0

Kindly note the recorded ThioT Assay % Inhibition for Cn1c(=O)n(Cc2ccc(O)c(O)c2)c(=O)c2c1ncn2Cc1ccc(O)c(O)c1 , which is 0
